Biological target: Autotaxin (ENPP2, NPP2) (Homo sapiens, UniProt Q13822 Q13822:36-863)
Experiment: inhibition
Each entry below carries its reported IC50.
OBSERVED PROPERTY: IC50

- UCUGAGGGAAACAGGUUUUGCUCCUCGGA (mixed, as 16(21) with dT1 dC2 dT3) [SEQ 16(25)]: 2.3 nM
- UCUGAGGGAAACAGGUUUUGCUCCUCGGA (mixed, as 16(4) with dT16) [SEQ 16(19)]: 51 nM
- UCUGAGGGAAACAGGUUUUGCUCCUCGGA (mixed, as 16(21) with dT3) [SEQ 16(42)]: 1 nM
- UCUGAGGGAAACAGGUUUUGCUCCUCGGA (ssRNA, as 16(4) with 5' 80 kDa PEG (GL2-800TS)-ssH linker instead of 5' idT) [SEQ 16(9)]: 32 nM
- UCCGAGGGAAACAGGUUUUGCUCCUCGGA (ssRNA, 2'-F pyrimidines, 2'-OH purines) [SEQ 29]: 53 nM
- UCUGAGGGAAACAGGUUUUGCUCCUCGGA (mixed, as 16(32) with PS at A10) [SEQ 16(36)]: 0.3 nM
- UGGGAAGGAAACAGGUUUUGCUCUUCACC (ssRNA, 2'-F pyrimidines, 2'-OH purines) [SEQ 53]: 30 nM
